All values here come from patent US12116358B2.

Target: SETD2(1434-1711) (Homo sapiens)
Construct: SETD2 (1434-1711) Assay; catalogue N/A
Assay: SETD2 (1434-1711) assay
Type: biochemical
Details: read-out: SETD2 (1434-1711)
Value Type: log10(IC50) (log10 of the value in nM)
Log10 applied to IC50; unit prior to transform: nM.

Sample CC(=O)N1CCN(C2COCC(NC(=O)c3cc4c(F)ccc(C)c4[nH]3)C2)CC1 (centres unmarked) [compound 988] — what was its log10(IC50)?
3.61

Look up log10(IC50) for this compound: Cc1ccc(F)c2cc(C(=O)NC3CCCC(N4CCN5C(=O)COCC5C4)C3)[nH]c12 (centres unmarked) [compound 1138]
1.00

I am curious: what log10(IC50) value has been reported for CC(=O)N1CCCC(c2cccc(NC(=O)c3cc4c(F)ccc(C)c4[nH]3)c2)C1 (centres unmarked) [compound 123] ?
1.70

Quick check: log10(IC50) of Cc1cccc2cc(C(=O)Nc3cccc(N4CCC(NCCN)CC4)c3)[nH]c12 [compound 452] ?
1.78

Recorded log10(IC50) of Cc1ccc(F)c2cc(C(=O)Nc3cccc([C@@H]4CCN5C(=O)CC[C@@H]5C4)c3)[nH]c12 [compound 51] , please.
1.30

Look up log10(IC50) for this compound: Cc1cccc2cc(C(=O)NCc3cnc[nH]3)[nH]c12 [compound 729]
5.11

Data request, read-out log10(IC50), for Cc1cccc2cc(C(=O)Nc3ccc4ncc(CN(C)C)n4c3)[nH]c12 [compound 427]
2.60

What log10(IC50) value was documented for this compound, COCC(=O)N1CCN([C@H]2CCC[C@@H](NC(=O)c3cc4c(F)ccc(C)c4[nH]3)C2)CC1 [compound 846] ?
1.30

* * *

Molecular target: SETD2(1434-1711) (Homo sapiens, UniProt Q9BYW2)
Construct: SETD2 (1434-1711) Assay; catalogue N/A
Experiment: SETD2 (1434-1711) assay
Format: biochemical
Details: read-out: SETD2 (1434-1711)
For each entry below, report its IC50 value.
Hi! Could you send only the number? It should be in nM, unit omitted.

Consider the molecule Cc1ccc(F)c2cc(C(=O)N[C@@H]3CCC[C@H](N4CCN(C(=O)CN(C)C)CC4)C3)[nH]c12 [compound 854] and give its measured IC50.
20

Item under review: Cc1cccc2cc(C(=O)NC(c3cccnc3)C3CC3)[nH]c12 (centres unmarked) [compound 689] . Reported IC50?
53300

Return reported IC50; argument: Cc1cccc2cc(C(=O)NC3CCCN(S(=O)(=O)CCCN)C3)[nH]c12 (centres unmarked) [compound 646]
20300

Data request, read-out IC50, for Cc1ccc(F)c2cc(C(=O)Nc3cc(F)cc([C@H]4CC[C@@H](N5CCOCC5)CC4)c3)[nH]c12 [compound 35]
6

# query: IC50 of entry Cc1ccc(F)c2cc(C(=O)Nc3cccc(N4CCN(C(=O)c5cccnc5)CC4)c3)[nH]c12 [compound 49]
30

Fill blank: measured IC50 of the molecule Cc1ccc(F)c2cc(C(=O)Nc3cccc(N4CCCCC4)c3)[nH]c12 [compound 297] is ____.
100

I am curious: what IC50 value has been reported for Cc1cccnc1C(NC(=O)c1cc2cccc(C)c2[nH]1)C(C)(C)C (centres unmarked) [compound 568] ?
13900

* * *

Molecular target: SETD2(1434-1711) (Homo sapiens, UniProt Q9BYW2)
Construct: SETD2 (1434-1711) Assay; catalogue N/A
Sequence (Q9BYW2 1434-1711): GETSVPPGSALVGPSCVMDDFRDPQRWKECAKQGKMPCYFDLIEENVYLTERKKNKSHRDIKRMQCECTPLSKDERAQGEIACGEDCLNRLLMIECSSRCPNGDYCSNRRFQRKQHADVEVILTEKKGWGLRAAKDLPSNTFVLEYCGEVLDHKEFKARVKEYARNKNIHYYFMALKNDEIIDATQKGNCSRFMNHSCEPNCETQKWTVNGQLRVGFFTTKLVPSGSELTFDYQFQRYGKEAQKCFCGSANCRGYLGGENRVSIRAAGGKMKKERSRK
Experiment: SETD2 (1434-1711) assay
Format: biochemical
Details: read-out: SETD2 (1434-1711)
Value Type: pIC50
Interpret pIC50 as the negative base-10 log of the concentration measured in mol/L.

What value of pIC50 has been reported for the following compound? Cc1ccc(F)c2cc(C(=O)Nc3cccc(N4CC5(CCN(CC(F)F)CC5)C4)c3)[nH]c12
7.52

Given the compound Cc1cccc2cc(C(=O)NC(C)c3cccc4ccccc34)[nH]c12 (stereo not shown) , what is its reported pIC50?
4.00

What value of pIC50 has been reported for the following compound? CC(=O)N1CC2CCC(C1)N2C1CCCC(NC(=O)c2cc3c(F)ccc(C)c3[nH]2)C1 (stereo not shown)
7.40

What value of pIC50 has been recorded for this entry: Cc1ccc(F)c2cc(C(=O)NC3CCCN(C4CCN(C)C(=O)C4)C3)[nH]c12 (stereo not shown)
5.38

Given the entry Cc1ccc(F)c2cc(C(=O)Nc3cccc(N4CCC5(CCN(CC(F)F)C5)CC4)c3)[nH]c12 , report its measured pIC50.
7.05

Tell me the measured pIC50 of Cc1ccc(F)c2cc(C(=O)Nc3cccc(-c4cccc5nccn45)c3)[nH]c12 , please.
7.00

# input compound: Cc1ccc(F)c2cc(C(=O)Nc3cccc(-c4cccc(CN(C)C)c4)c3)[nH]c12 ; wanted: its pIC50
7.22

I would be grateful if you could share the reported pIC50 for Cc1ccc(F)c2cc(C(=O)Nc3cccc(N4CC[C@@H](N(C)C)C[C@@H]4C)c3)[nH]c12 .
7.22

Return reported pIC50; argument: Cc1cccc2cc(C(=O)NC3CCN(C(=O)CCCN)CC3)[nH]c12
4.73

// returns reported pIC50 for input Cc1ccc(F)c2cc(C(=O)Nc3cccc(N4CCOCC4CN(C)C)c3)[nH]c12 (stereo not shown)
6.05

Could you tell me which pIC50 is on file for C/C(=N\C#N)N1CCN([C@H]2CCC[C@@H](NC(=O)c3cc4c(F)ccc(C)c4[nH]3)C2)CC1 ?
7.70

Returns the measured pIC50 for the input compound. Input: Cc1ccc(F)c2cc(C(=O)N[C@@H]3CCC[C@@H](N4CCNC(=O)CC4)C3)[nH]c12
6.15

So what does the record say about pIC50 for CC(=O)N1CCC(C(N)=O)(c2cc(F)cc(NC(=O)c3cc4c(F)ccc(C)c4[nH]3)c2)CC1 ?
8.00

What measured pIC50 goes with Cc1ccc(F)c2cc(C(=O)NC3CCCC(N4CCN5C(=O)OCC5C4)C3)[nH]c12 (stereo not shown) [compound 1134] ?
6.00

Give the measured pIC50 of Cc1cccc2cc(C(=O)NC(C)c3ccccc3Cl)[nH]c12 (stereo not shown) [compound 1156] .
5.68

Request the reported pIC50 associated with Cc1ccc(F)c2cc(C(=O)Nc3cccc(N4CCN(C(=O)CN(C)C)CC4)c3)[nH]c12
7.22

Request the reported pIC50 associated with Cc1ccc(F)c2cc(C(=O)NC3CCCC(N4CCN5C(=O)OCC5C4)C3)[nH]c12 (stereo not shown) [compound 1111]
7.70

// query pIC50 value for entry Cc1ccc(F)c2cc(C(=O)NC3CCCC(N4CCN(C5CCOC5)C(=O)C4)C3)[nH]c12 (stereo not shown) [compound 974]
5.59

# lookup: pIC50 of Cc1ccc(F)c2cc(C(=O)N[C@@H]3CCC[C@H](N4CCn5c(cnc5C(F)(F)F)C4)C3)[nH]c12
7.40

# lookup: pIC50 of CC(=O)N1CCN([C@H]2CCC[C@@H](NC(=O)c3cc4c(F)ccc(C)c4[nH]3)C2)CC12CC2
7.70

Looking for the measured pIC50 of Cc1ccc(F)c2cc(C(=O)NC3CCCC(N4CCn5ncnc5C4)C3)[nH]c12 (stereo not shown) , can you help?
7.00

Dear colleague, I am looking for the recorded pIC50 of the following compound: Cc1ccc(F)c2cc(C(=O)NC3CCCC(N4CCCN(S(C)(=O)=O)CC4)C3)[nH]c12 (stereo not shown) [compound 982]
6.00

Dear colleague, I am looking for the recorded pIC50 of the following compound: Cc1ccc(F)c2cc(C(=O)Nc3cncc(N4CCN(C)CC4)c3)[nH]c12
6.15

Which pIC50 is listed for Cc1ccc(F)c2cc(C(=O)Nc3cccc(-c4nnc(C5CC5)o4)c3)[nH]c12 ?
7.52

Fill in: pIC50 of CC(=O)N1CCN([C@H]2C[C@H](NC(=O)c3cc4c(F)ccc(C)c4[nH]3)CN(C)C2)CC1 is ___
5.28

State the recorded pIC50 for this entry: Cc1ccc(F)c2cc(C(=O)Nc3cccc(N4CC5CCC(C4)C5N(C)C)c3)[nH]c12 (stereo not shown)
6.52

# pIC50 lookup, item Cc1ccc(F)c2cc(C(=O)N[C@@H]3CCC[C@H](N4CC5(CNC(=O)C5)C4)C3)[nH]c12
8.00

Which pIC50 reading was recorded for the compound Cc1ccc(F)c2cc(C(=O)N[C@@H]3CCC[C@H](N4CCCN(C)C(=O)C4)C3)[nH]c12 ?
7.00

May I ask what pIC50 has been recorded for Cc1ccc(F)c2cc(C(=O)Nc3cc(Cl)cc([C@H]4CC[C@H](N(C)C)CC4)c3)[nH]c12 ?
7.40
